Biological target: ORF 73 (Human herpesvirus 8)
Test: Inhibition of fluorescent labelled LBS1 DNA binding to human herpesvirus 8 C-terminal His-tagged LANA oligomerization deficient mutant DBD (1008 to 1146 residues) expressed in Escherichia coli BL21 (DE3) preincubated for 60 mins followed by fluorescent labelled LBS2 addition and measured after 90 mins by fluorescence polarization assay
Design: species or system Human gammaherpesvirus 8
Measured IC50 accompanies every entry in the list below.
// units = µM; emit number, no label

Below: 2 compounds and their reported IC50.
Qu. # IC50 lookup, item O=C(O)c1ccc(-n2cc(C3(O)CCCC3)nn2)cc1
Ans. 104

Qu. What measured IC50 goes with Nc1cccc(-c2cn(-c3ccc(C(=O)O)cc3)nn2)c1 ?
Ans. 136

***
Qu. Record request: IC50 value, item Nc1ccc(-c2cn(-c3ccc(C(=O)O)cc3)nn2)cc1
Ans. 19

Qu. Can you share its IC50? I mean this compound: O=C(O)c1ccc(-c2cn(-c3cccnc3)nn2)cc1
Ans. 20

Qu. Quick check: IC50 of Nc1ccccc1-c1cn(-c2ccc(C(=O)O)cc2)nn1 ?
Ans. 25

Qu. What does the record list as IC50 for Nc1ccccc1-n1cc(-c2ccc(C(=O)O)cc2)nn1 ?
Ans. 25

====

Recorded inhibition values for a group of compounds are listed next.
Tested on: ORF 73 (Human herpesvirus 8), O40947 [UNDEFINED MUTATION]
Assay: Inhibition of fluorescent labelled LBS2 DNA binding to human herpesvirus 8 C-terminal His-tagged LANA oligomerization deficient mutant DBD (1008 to 1146 residues) expressed in Escherichia coli BL21 (DE3) at 1 mM preincubated for 60 mins followed by fluorescent labelled LBS2 addition and measured after 90 mins by fluorescence polarization assay relative to control
Details: Human gammaherpesvirus 8

Qu. inhibition for O=C(O)c1ccc(-n2ccnn2)cc1 ?
Ans. 35%

---
Qu. # input compound: Nc1ccccc1-n1cnc2ccccc21 ; wanted: its inhibition
Ans. 32%

Qu. inhibition for COc1ccccc1-n1ccnc1 ?
Ans. 15%

Qu. May I ask what inhibition has been recorded for O=C(O)c1cccc(-n2cc(-c3ccccc3)nn2)c1 ?
Ans. 43%

====

Tested on: ORF 73 (Human herpesvirus 8), O40947 [UNDEFINED MUTATION]
Assay: Inhibition of fluorescent labelled LBS2 DNA binding to human herpesvirus 8 C-terminal His-tagged LANA oligomerization deficient mutant DBD (1008 to 1146 residues) expressed in Escherichia coli BL21 (DE3) at 1 mM preincubated for 60 mins followed by fluorescent labelled LBS2 addition and measured after 90 mins by fluorescence polarization assay relative to control
Details: Human gammaherpesvirus 8
quantity: inhibition

As a guide, the following entries are already answered.
Qu. What does the data say about its inhibition? Entry: CC(=O)Nc1ccccc1-n1ccnc1
Ans. 32%

Qu. Quick one: inhibition for O=[N+]([O-])c1ccc(-n2ccnc2)cc1 ?
Ans. 22%

Qu. What value of inhibition has been recorded for this entry: Nc1ccccc1-n1ccnc1
Ans. 25%

Qu. Bench note: what inhibition did O=C(O)c1ccccc1-n1cc(-c2ccccc2)nn1 show?
Ans. 13%

Qu. Report inhibition for O=C(O)c1cccc(-n2ccnn2)c1 please.
Ans. 98%

Qu. Reported inhibition, compound O=[N+]([O-])c1cccc(-n2ccnc2)c1 : ____
Ans. 21%

Qu. Given the compound Oc1ccccc1-n1ccnc1 , what is its reported inhibition?
Ans. 51%

Qu. Consider the compound Cc1cn(-c2ccccc2N)cn1 and give its measured inhibition.
Ans. 91%

Further cases:
Qu. Given the compound O=[N+]([O-])c1ccccc1-n1ccnc1 , what is its reported inhibition?
Ans. 74%

Data origin: ChEMBL document CHEMBL4385596
